B1: Growth factor receptor-bound protein 2, Q08012 (parent)
chain: MEAIAKHDFSATADDELSFRKTQILKILNMEDDSNWYRAELDGKEGLIPSNYIEMKNHDWYYGRITRADAEKLLSNKHEGAFLIRISESSPGDFSLSVKCPDGVQHFKVLRDAQSKFFLWVVKFNSLNELVEYHRTASVSRSQDVKLRDMIPEEMLVQALYDFVPQESGELDFRRGDVITVTDRSDENWWNGEIGNRKGIFPATYVTPYHS

Variants of: B1
Conditions: Drosophila melanogaster; pH 6; Thermal; CD; phosphate 50 mM; Na2SO4 0.4 M; structure 2A36; whole UniProt chain shown
Label Condition met when Tm >= 70 °C; otherwise Condition not met.

For orientation, consider the following solved cases.
| Mutations | Assigned class |
| --- | --- |
| T22K | Condition not met |
| T22D | Condition met |
| T22L | Condition not met |
| T22S | Condition not met |
| T22G Q23D | Condition met |
| T22A | Condition not met |
| T22F | Condition not met |

Below: the item to evaluate.
Record T22G ; criterion: Tm no lower than 70 °C. Met?
Condition met

Entry source: FireProtDB (doi:10.1006/jmbi.2001.4521)
